Source of measurements: paper PMC11124341

For each record, write down the corresponding melting point.

Prompt: Please report the measured melting point for O=C(N/N=C/c1c(O)cc(O)c(/C=N/NC(=O)c2ccc(O)cc2)c1O)c1ccc(O)cc1 [compound 32]
Completion: 223 to 226 °C (dec.)

Prompt: Please report the measured melting point for COc1cc(/C=N/NC(=O)c2ccc(O)cc2)c(O)c(CO)c1 [compound 26]
Completion: 219 to 220 °C

Prompt: Please report the measured melting point for O=C(N/N=C/c1ccc(O)cc1O)c1ccccc1 [compound 22]
Completion: 255 to 256 °C (dec.)

Prompt: Please report the measured melting point for O=C(N/N=C/c1cc(O)c(O)cc1O)c1ccc(O)cc1 [compound 23]
Completion: 253 °C (dec.)

Prompt: Please report the measured melting point for O=C(N/N=C/c1cc(O)ccc1O)c1ccc(O)cc1 [compound 13]
Completion: 304 °C (dec.)

---

For each record, write down the corresponding inhibition at 50 µg/mL.
- Tested on: Cerrena unicolor strain no. 139
- procedure summary: In vitro antifungal activity, mycelial growth inhibition on PDA medium
- Type: cell-based
- condition description: Cerrena unicolor, NO.139; fungicidal profile, 50 µg/mL; read-out: C. unicolor inhibition
Report the value in % with no unit label.

Prompt: Please report the measured inhibition at 50 µg/mL for CC1(C(=O)Nc2ccc(O)c(Cl)c2Cl)CCCCC1 [Fenhexamid, reference compound]
Completion: 32.1

Prompt: Please report the measured inhibition at 50 µg/mL for O=C(N/N=C/c1cccc(-c2ccccc2)c1O)c1ccc(O)cc1 [compound 19]
Completion: 70.5

Prompt: Please report the measured inhibition at 50 µg/mL for Cc1cc(/C=N/NC(=O)c2ccc(O)cc2)c(O)c(C(C)(C)C)c1 [compound 30]
Completion: 90.5

Prompt: Please report the measured inhibition at 50 µg/mL for CC(C)(C)c1cccc(/C=N/NC(=O)c2ccc(O)cc2)c1O [compound 18]
Completion: 76.5

---

- Tested on: Sclerotinia sclerotiorum strain FSc10
- procedure summary: In vitro antifungal activity, mycelial growth inhibition on PDA medium
- Format: cell-based
- condition description: Sclerotinia sclerotiorum, FSC10; log-logistic model, 0–50 µg/mL range; read-out: IC50 against Sclerotinia sclerotiorum (Ss)
For each record, write down the corresponding log10 of IC50.
Would you kindly interpret these values as log10 of IC50 expressed in mg/L?

Prompt: Please report the measured log10 of IC50 for O=C(N/N=C/c1cccc(-c2ccccc2)c1O)c1ccc(O)cc1
Completion: 1.84

Prompt: Please report the measured log10 of IC50 for Cc1ccc(C(C)C)c(O)c1/C=N/NC(=O)c1ccc(O)cc1
Completion: 0.99

Prompt: Please report the measured log10 of IC50 for CC(C)(C)c1cc(/C=N/NC(=O)c2ccc(O)cc2)c(O)c(C(C)(C)C)c1
Completion: -0.30

Prompt: Please report the measured log10 of IC50 for CC(C)(C)c1cccc(/C=N/NC(=O)c2ccc(O)cc2)c1O
Completion: 0.26

Prompt: Please report the measured log10 of IC50 for Cc1cc(/C=N/NC(=O)c2ccc(O)cc2)c(O)c(C(C)(C)C)c1
Completion: -0.10

Prompt: Please report the measured log10 of IC50 for CC1(C(=O)Nc2ccc(O)c(Cl)c2Cl)CCCCC1 [Fenhexamid, reference compound]
Completion: 0.62

---

For each record, write down the corresponding log10(IC50).
- Test system: Balb/3T3 cells
- procedure summary: Antiproliferative assay in vitro (SRB)
- Type: cell-based, mouse
- condition description: Mus musculus, BALB/3T3; 72 h exposure, SRB method; read-out: Average IC50 ± SD, Balb/3T3 line
- Experimental: Antiproliferative tests were performed on a normal human breast cell line, MCF-10A, and a mouse embryonic fibroblast: Balb/3T3. Both cell lines were obtained from the American Type Culture Collection (Rockville, MD, USA). The cell lines were maintained in the Institute of Immunology and Experimental Therapy, Wroclaw, Poland. […]
Would you kindly interpret these values as log10 of IC50 expressed in µM?

Prompt: Please report the measured log10(IC50) for O=C(N/N=C/c1cccc(-c2ccccc2)c1O)c1ccc(O)cc1 [compound 19]
Completion: 0.60

Prompt: Please report the measured log10(IC50) for Cc1cc(/C=N/NC(=O)c2ccc(O)cc2)c(O)c(C(C)(C)C)c1 [compound 30]
Completion: 1.36

Prompt: Please report the measured log10(IC50) for O=C(N/N=C/c1cc(O)ccc1O)c1ccc(O)cc1 [compound 13]
Completion: 2.12

Prompt: Please report the measured log10(IC50) for COc1cc(/C=N/NC(=O)c2ccc(O)cc2)ccc1O [compound 17]
Completion: 2.34

Prompt: Please report the measured log10(IC50) for CC(C)(C)c1cc(/C=N/NC(=O)c2ccc(O)cc2)c(O)c(C(C)(C)C)c1 [compound 27]
Completion: 1.07

Prompt: Please report the measured log10(IC50) for CC(C)(C)c1cccc(/C=N/NC(=O)c2ccc(O)cc2)c1O [compound 18]
Completion: 1.06

Prompt: Please report the measured log10(IC50) for Cc1cc(/C=N/NC(=O)c2ccc(O)cc2)c(O)c(CO)c1 [compound 25]
Completion: 1.43
